molecular target: RpsL12 (ribosomal protein S12) (Lysinibacillus sphaericus); construct: isolated ribosomal protein without rRNA; 426 bp gene in pET32a(+), purified from soluble fraction of E. coli BL21; experiment: biochemical
Sequence (B1HMZ3 whole entry): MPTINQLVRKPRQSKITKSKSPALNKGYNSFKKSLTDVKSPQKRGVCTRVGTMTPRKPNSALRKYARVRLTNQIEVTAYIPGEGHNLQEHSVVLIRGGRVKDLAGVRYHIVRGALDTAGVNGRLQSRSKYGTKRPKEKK
quantity: pKd
A value of pKd is the negative decimal logarithm of a concentration given in moles per litre.

Example cases with answers are listed next.
compound="CN[C@@H]1[C@H](O[C@H]2[C@H](O[C@H]3[C@H](O)[C@@H](O)[C@H](N=C(N)N)[C@@H](O)[C@@H]3N=C(N)N)O[C@@H](C)[C@]2(O)C=O)O[C@@H](CO)[C@H](O)[C@H]1O [streptomycin]" tested_on="RpsL12 (ribosomal protein S12) (Lysinibacillus sphaericus)" assay_result=7.43
compound="CCN[C@@H]1C[C@H](N)[C@@H](O[C@H]2O[C@H](CN)CC[C@H]2N)[C@H](O)[C@H]1O[C@H]1OC[C@](C)(O)[C@H](NC)[C@H]1O [etimicin]" tested_on="RpsL12 (ribosomal protein S12) (Lysinibacillus sphaericus)" assay_result=3.42

Continue with the next compound.
For CNC(C)[C@@H]1CC[C@@H](N)[C@@H](O[C@H]2[C@H](O)[C@@H](O[C@H]3OC[C@](C)(O)[C@H](NC)[C@H]3O)[C@H](N)C[C@@H]2N)O1 (stereo partly drawn) [gentamicin] the compound record lists pKd as 5.33
